System under test: HLA-B*44:02
Run description: IEDB peptide-MHC binding, purified MHC/competitive/radioactivity; filed as Kd, often an IC50 or EC50 that approximates it; bounds were set here for any values at or beyond the usual limits of such assays
Cond: source organism: SARS coronavirus Tor2
Measurement name: Kd (nM)

Input sequence	Measurement name	Bound operator	Measured result
VELKHFFFA	Kd	=	15600
TEHSWNADL	Kd	=	125
GETALALLL	Kd	=	31.4
SEGVPDLLV	Kd	≥	37100
VEYYPLLFIT	Kd	≥	62000
TEAFEKMVSL	Kd	=	1920
REMLAHAEET	Kd	=	895
